pIC50 for DGKζ (Homo sapiens, UniProt Q13574), merged from several publications.
In plain terms, pIC50 is the concentration in mol/L turned into minus its base-10 logarithm.

The cases that follow already have their pIC50 on record.
{"columns": ["Compound", "Reported"],
 "data": [
  ["CC[C@H]1CN(C(C)c2ccc(OC)c(C)c2)[C@H](CC)CN1c1cc(=O)n(C)c2cn(CC#N)nc12 (stereo partly shown)", 6.47],
  ["CC(c1ccc2ncc(C(F)F)nc2c1)N1C[C@H](C)N(c2cc(=O)n(C)c3cc(CC#N)nn23)C[C@H]1C (stereo partly shown)", 7.24],
  ["N[C@@H]1CC(F)(F)c2cc(F)c(-c3nnc(N4CCC(F)(F)C4)o3)cc2N(Cc2ccc(-n3cnc(C(F)(F)F)n3)cc2)C1=O (single isomer, unassigned)", 4.75]
]}

Form field - read-out: pIC50; system: DGKζ (Homo sapiens, UniProt Q13574); submitted item: CC[C@H]1CN(C(C)c2cnc3c(c2)CCO3)[C@H](CC)CN1c1cc(=O)n(C)c2cn(CC#N)nc12 (stereo partly shown)
6.32

Form field - read-out: pIC50; system: DGKζ (Homo sapiens, UniProt Q13574); submitted item: COc1ccc(-c2ccc(CN3C(=O)[C@H](N)CC(F)(F)c4cc(F)c(-c5nnc(C(C)(C)S(C)(=O)=O)o5)cc43)cc2)cc1 (single isomer, unassigned)
5.98

Form field - read-out: pIC50; system: DGKζ (Homo sapiens, UniProt Q13574); submitted item: CC#CCn1cc2c(n1)c(N1C[C@@H](CC)N(C(C)c3ccc4ncsc4n3)C[C@@H]1C)cc(=O)n2C (stereo partly shown)
6.63

Form field - read-out: pIC50; system: DGKζ (Homo sapiens, UniProt Q13574); submitted item: CC[C@H]1CN(C(C)c2ccc(C3CC3)c(C)n2)[C@H](CC)CN1c1cc(=O)n(C)c2cn(CC#N)nc12 (stereo partly shown)
7.03

Form field - read-out: pIC50; system: DGKζ (Homo sapiens, UniProt Q13574); submitted item: CC[C@H]1CN(C(C)c2ccc(COC3CCOC3)cc2)[C@H](CC)CN1c1cc(=O)n(C)c2cn(CC#N)nc12 (stereo partly shown)
6.50
